# experimental protocol: Caco-2 bidirectional permeability assay
# setup conditions: human, Caco-2
observation type: Papp A→B at 10 µM (×10⁻⁶ cm/s)
Please respond with the number in ×10⁻⁶ cm/s and leave the unit unwritten.

# get_value(readout='Papp A→B at 10 µM', item= COc1cc2c(c(OC)c1OC)-c1ccc(OC)c(=O)cc1[C@@H](NC(C)=O)CC2 )
0.23

# get_value(readout='Papp A→B at 10 µM', item= CNC(=C[N+](=O)[O-])NCCSCc1ccc(CN(C)C)o1 )
0.91

# get_value(readout='Papp A→B at 10 µM', item= CC(CCc1ccccc1)NCC(O)c1ccc(O)c(C(N)=O)c1 (stereo not drawn) )
19.4

====

# experimental protocol: Caco-2 bidirectional permeability assay
# setup conditions: human, Caco-2
Overview of reported Papp B→A at 10 µM across a group of compounds:
Show the value, then the unit it is measured in.

compound: CC(CCc1ccccc1)NCC(O)c1ccc(O)c(C(N)=O)c1 (stereo not drawn)
Papp B→A at 10 µM: 31.6 ×10⁻⁶ cm/s
//
compound: COc1cc2c(c(OC)c1OC)-c1ccc(OC)c(=O)cc1[C@@H](NC(C)=O)CC2
Papp B→A at 10 µM: 6.18 ×10⁻⁶ cm/s

Kindly consider the entry below.
# get_value(readout='Papp B→A at 10 µM', item= CNC(=C[N+](=O)[O-])NCCSCc1ccc(CN(C)C)o1 )
3.02 ×10⁻⁶ cm/s

====

Overview of reported recovery across a group of compounds:
# experimental protocol: Caco-2 bidirectional permeability assay
# setup conditions: human, Caco-2, Recovery, A→B, Caco-2
Please respond with the number in % and leave the unit unwritten.

As a guide, the following entries are already answered.
compound: CC(CCc1ccccc1)NCC(O)c1ccc(O)c(C(N)=O)c1 (stereo not drawn) [Labetalol]
recovery [%]: 64
--
compound: CNC(=C[N+](=O)[O-])NCCSCc1ccc(CN(C)C)o1 [Ranitidine]
recovery [%]: 78

Kindly consider the entry below.
# get_value(readout='recovery', item= COc1cc2c(c(OC)c1OC)-c1ccc(OC)c(=O)cc1[C@@H](NC(C)=O)CC2 [Colchicine] )
69

====

# Test system: P-gp
# experimental protocol: MDCK bidirectional permeability assay
# setup conditions: dog
observation type: efflux ratio at 10 µM
Output spec: single numeric token, no unit.

# get_value(readout='efflux ratio at 10 µM', item= COc1cc2c(c(OC)c1OC)-c1ccc(OC)c(=O)cc1[C@@H](NC(C)=O)CC2 )
2.72

====

# Test system: P-gp
# experimental protocol: MDCK bidirectional permeability assay
# setup conditions: dog
observation type: Papp A→B at 10 µM
Show the value, then the unit it is measured in.

# get_value(readout='Papp A→B at 10 µM', item= COc1cc2c(c(OC)c1OC)-c1ccc(OC)c(=O)cc1[C@@H](NC(C)=O)CC2 [Colchicine] )
0.85 ×10⁻⁶ cm/s

====

# Tested on: P-gp
# experimental protocol: MDCK bidirectional permeability assay
# setup conditions: dog, Recovery, B→A, + verapamil 100 μM
observation type: recovery (%)
Please respond with the number in % and leave the unit unwritten.

# get_value(readout='recovery', item= COc1cc2c(c(OC)c1OC)-c1ccc(OC)c(=O)cc1[C@@H](NC(C)=O)CC2 [Colchicine] )
113
